B1: PKD2L1 (parent)
chain: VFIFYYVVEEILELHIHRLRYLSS

variants of: B1; experiment: protein stability index of a GFP-peptide fusion (GPS, HEK-293T) (PSI 1-6); higher = more stable; conditions: c terminus: a fixed tail appended;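 further: lentivirally expressed fusions sorted by FACS into six bins by GFP to DsRed ratio, PSI derived from sequencing read proportions per bin multiplied by bin number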
Consider the following variants; for each one, report its protein stability index.
Give bare numbers.

// solved cases for protein stability index follow
# variant.annotation, protein stability index
measured = [
    ("E13L", 3.25),
    ("H17L", 2.14),
    ("F2A", 1.52),
    ("F2E", 1.5),
    ("E13Y", 1.93),
]

Return reported protein stability index values for all items listed beneath this line.
1. L22C
2. H17G
3. V8M
4. H17K
5. I11T
6. H15N
7. S24N
8. V7H

A)
1: 3.65; 2: 4.03; 3: 3.67; 4: 2.13; 5: 2.64; 6: 3.63; 7: 3.95; 8: 3.16

Return reported protein stability index values for all items listed beneath this line.
1. L12G
2. I11G

A)
1: 1.89; 2: 2.73
